Biological target: T1, 5/B/6 metallo-beta-lactamase (MBL) wild type (Bacillus cereus 5/B/6, UniProt P14488 30-256)
T1 sequence: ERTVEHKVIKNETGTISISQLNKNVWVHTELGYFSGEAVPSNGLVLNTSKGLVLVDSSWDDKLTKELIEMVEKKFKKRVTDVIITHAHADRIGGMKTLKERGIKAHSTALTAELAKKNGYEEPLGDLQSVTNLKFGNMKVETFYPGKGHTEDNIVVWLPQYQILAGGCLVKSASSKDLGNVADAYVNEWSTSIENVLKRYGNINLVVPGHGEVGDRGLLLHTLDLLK
Test: enzyme inhibition; cefuroxime substrate; NMR: 20 mM MOPS, 1 mM ZnSO4, pH 7, 25 C (buffer stated for assignment sample; titration at 25 C); kinetic assay buffer not in the material
Settings: protein: recombinant; tags: none stated; hairpin (M-fold predicted)
quantity-kind: IC50

# binder, value-measured
records = [
    ("CCAAACTTGG (structured_DNA) [10-mer DNA aptamer]", "120 nM"),
]
